Every entry's value here was drawn from patent US12371454B2.

Target: Kras and SOS1 (biotin-tagged human Kras loaded with GDP, His-tagged human SOS1) (Homo sapiens, UniProt P01116, G12D)
Construct: made in house; host or cells: E. coli (stated for Kras only)
Sequence (P01116 1-188 isoform P01116-2 G12D): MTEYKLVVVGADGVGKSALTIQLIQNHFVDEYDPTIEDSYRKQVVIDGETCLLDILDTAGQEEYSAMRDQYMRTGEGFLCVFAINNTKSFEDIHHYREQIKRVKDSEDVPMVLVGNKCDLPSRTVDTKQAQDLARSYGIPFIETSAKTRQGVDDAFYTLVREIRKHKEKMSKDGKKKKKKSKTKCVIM
Experiment: Protein-protein interaction inhibition between Kras and SOS1 (KrasGl2D-SOS PPI) using AlphaScreen
Assay type: binding
Settings: AlphaScreen; biotin-tagged human Kras loaded with GDP, His-tagged human SOS1; read-out: KRAS G12D-SOS PPI IC50
Starred links: 1 amine or outer side, 2 acyl side, 3 side chain; linkers in the order of their positions; H or OH if unused. Positions of bridges follow the written chain, without caps; N, C: chain ends. Non-standard residues stand in square brackets, D forms with d. Residues, ends and D or L forms follow the SMILES beside them. *: point of attachment. hPhe(3-Cl-4-CF3) = N[C@@H](CCc1ccc(C(F)(F)F)c(Cl)c1)C(=O)O; NMedβ3hAla = C[C@H](CC(=O)[*:2])N(C)[*:1]; NMeGly(cPent) = CN[C@H](C(=O)O)C1CCCC1; NMeCha = CN[C@@H](CC1CCCCC1)C(=O)O; NMeGly(cPr) = CN[C@H](C(=O)O)C1CC1; NMeChg = CN[C@H](C(=O)O)C1CCCCC1; N(CH2CH2)2CF2 = FC1(F)CCN(*)CC1; NMeD = CN[C@@H](CC(=O)O)C(=O)O; NMeL = CN[C@@H](CC(C)C)C(=O)O; NMeA = CN[C@@H](C)C(=O)O; Nle = CCCC[C@H](N)C(=O)O; Piperidide = C1CCN(*)CC1; Ac5c = NC1(C(=O)O)CCCC1; Aze = O=C(O)[C@@H]1CCN1; Sar = CNCC(=O)O
Measurement Name: pIC50
// scale note: pIC50 = -log10(conc_M); give the bare number

[
  {
    "Molecule": "CC[C@H](C)[C@@H]1NC(=O)[C@H](CC(C)C)N(C)C(=O)C[C@@H](C)N(C)C(=O)[C@H](C2CC2)N(C)C(=O)C2(CCCC2)NC(=O)[C@@H]2CCCN2C(=O)[C@H](CCc2ccc(C(F)(F)F)c(Cl)c2)NC(=O)CN(C)C(=O)[C@H](CC2CCCCC2)N(C)C(=O)CN(C)C(=O)CN(C)C1=O [Compound 874] (cyclo([Ac5c][NMeGly(cPr)][NMedβ3hAla][NMeL]I[Sar][Sar][NMeCha][Sar][hPhe(3-Cl-4-CF3)]P))",
    "pIC50": 7.60
  },
  {
    "Molecule": "CC[C@H](C)[C@@H]1NC(=O)[C@H](CC(C)C)N(C)C(=O)C[C@@H](C(=O)N2CCCCC2)N(C)C(=O)[C@H](C2CCCC2)N(C)C(=O)C2(CCCC2)NC(=O)[C@H](CC(=O)N2CCC(F)(F)CC2)N(C)C(=O)[C@H](CCc2ccc(C(F)(F)F)c(Cl)c2)NC(=O)CN(C)C(=O)[C@H](CC2CCCCC2)N(C)C(=O)[C@@H]2CCN2C(=O)[C@H](C)N(C)C1=O [Compound 984] ([NMeL]I[NMeA][Aze][NMeCha][Sar][hPhe(3-Cl-4-CF3)][NMeD](N(CH2CH2)2CF2)[Ac5c][NMeGly(cPent)][NMeD]-Piperidide; lactam N-11)",
    "pIC50": 7.60
  }
]

Please look at the following molecule next.
Q) Identify measured pIC50 corresponding to CCCC[C@@H]1NC(=O)[C@H](CC(C)C)N(C)C(=O)C[C@@H](C(=O)N2CCCCC2)N(C)C(=O)[C@H](C2CCCCC2)N(C)C(=O)C2(CCCC2)NC(=O)[C@@H]2CCCN2C(=O)[C@H](CCc2ccc(C(F)(F)F)c(Cl)c2)NC(=O)CN(C)C(=O)[C@H](CC2CCCCC2)N(C)C(=O)CN(C)C(=O)CN(C)C1=O [Compound 1723] ([NMeL][Nle][Sar][Sar][NMeCha][Sar][hPhe(3-Cl-4-CF3)]P[Ac5c][NMeChg][NMeD]-Piperidide; lactam N-11)
A) 8.44
